Data credit: PubChem BioAssay

Test: decreased DLD-1 cellular survival, CellTiter-Glo luminescent readout, NPC compound collection, primary HTS (AID 1117346)
Conditions: DLD-1 viability, CellTiter-Glo luminescence; at 20 µM (top of the series)
Active and inactive are the calls of the source.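 How the source made its calls: active means compounds that lower survival of DLD-1 colon cancer cells in the luminescence readout, no cutoff given; inactive means the rest.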
Write down one outcome, taken from YES = active, NO = inactive

Example entries and their recorded answers appear below.
molecule=CC(=O)Oc1ccc(C(=C2CCCCC2)c2ccc(OC(C)=O)cc2)cc1 label_class=YES
molecule=COc1ccc(CCC(C)=O)cc1 label_class=NO
molecule=Nc1nc(-c2ccccc2)c(Br)c(=O)[nH]1 label_class=NO
molecule="CC(C)(Cc1c[nH]c2ccccc12)NCC(O)COc1ccccc1C#N (configuration not stated)" label_class=NO
molecule=Nc1ccc([N+](=O)[O-])c(C(F)(F)F)c1 label_class=NO

Test call, this molecule: `Nc1nc2ccc(OC(F)(F)F)cc2s1` NO

// param item: `C[C@H]1NCc2cc(-c3ccc4c(=O)c(C(=O)O)cn(C5CC5)c4c3OC(F)F)ccc21` ; yields the recorded call NO

Answer briefly: the call reported for `C[C@H](CS)C(=O)N1CCC[C@H]1C(=O)O` in this assay. NO

Record request — test call for CC(C)(C)NCC(O)c1cc(O)cc(O)c1 (configuration not stated) NO

Per the assay record, what outcome was assigned to `O=C1CC2(CCCC2)CC(=O)N1` ? NO

Give the logged outcome of this assay for the following molecule: `NC(=O)CC[C@@H]1NC(=O)[C@H](Cc2ccccc2)NC(=O)[C@H](Cc2ccc(O)cc2)NC(=O)CCSSC[C@@H](C(=O)N2CCC[C@H]2C(=O)N[C@@H](CCCN=C(N)N)C(=O)NCC(N)=O)NC(=O)[C@H](CC(N)=O)NC1=O` NO

Tell me the assay call for `C=C1C(=C/C=C2\CCC[C@]3(C)[C@@H]([C@H](C)/C=C/[C@@H](O)C4CC4)CC[C@@H]23)C[C@@H](O)C[C@@H]1O` please. YES
